Items are presented alongside their recorded IC50.
target: NaV1.7 (Homo sapiens, UniProt Q15858); construct: expressed in transfected cells; host or cells: HEK293, tetracycline-inducible; test: Automated patch clamp (Qube 384), internal block of NaV1.7 in HEK293 cells; format: cell-based; conditions: compound in internal solution, read-out: NaV1.7 Intracellular Inhibition
Sequence (Q15858 whole entry): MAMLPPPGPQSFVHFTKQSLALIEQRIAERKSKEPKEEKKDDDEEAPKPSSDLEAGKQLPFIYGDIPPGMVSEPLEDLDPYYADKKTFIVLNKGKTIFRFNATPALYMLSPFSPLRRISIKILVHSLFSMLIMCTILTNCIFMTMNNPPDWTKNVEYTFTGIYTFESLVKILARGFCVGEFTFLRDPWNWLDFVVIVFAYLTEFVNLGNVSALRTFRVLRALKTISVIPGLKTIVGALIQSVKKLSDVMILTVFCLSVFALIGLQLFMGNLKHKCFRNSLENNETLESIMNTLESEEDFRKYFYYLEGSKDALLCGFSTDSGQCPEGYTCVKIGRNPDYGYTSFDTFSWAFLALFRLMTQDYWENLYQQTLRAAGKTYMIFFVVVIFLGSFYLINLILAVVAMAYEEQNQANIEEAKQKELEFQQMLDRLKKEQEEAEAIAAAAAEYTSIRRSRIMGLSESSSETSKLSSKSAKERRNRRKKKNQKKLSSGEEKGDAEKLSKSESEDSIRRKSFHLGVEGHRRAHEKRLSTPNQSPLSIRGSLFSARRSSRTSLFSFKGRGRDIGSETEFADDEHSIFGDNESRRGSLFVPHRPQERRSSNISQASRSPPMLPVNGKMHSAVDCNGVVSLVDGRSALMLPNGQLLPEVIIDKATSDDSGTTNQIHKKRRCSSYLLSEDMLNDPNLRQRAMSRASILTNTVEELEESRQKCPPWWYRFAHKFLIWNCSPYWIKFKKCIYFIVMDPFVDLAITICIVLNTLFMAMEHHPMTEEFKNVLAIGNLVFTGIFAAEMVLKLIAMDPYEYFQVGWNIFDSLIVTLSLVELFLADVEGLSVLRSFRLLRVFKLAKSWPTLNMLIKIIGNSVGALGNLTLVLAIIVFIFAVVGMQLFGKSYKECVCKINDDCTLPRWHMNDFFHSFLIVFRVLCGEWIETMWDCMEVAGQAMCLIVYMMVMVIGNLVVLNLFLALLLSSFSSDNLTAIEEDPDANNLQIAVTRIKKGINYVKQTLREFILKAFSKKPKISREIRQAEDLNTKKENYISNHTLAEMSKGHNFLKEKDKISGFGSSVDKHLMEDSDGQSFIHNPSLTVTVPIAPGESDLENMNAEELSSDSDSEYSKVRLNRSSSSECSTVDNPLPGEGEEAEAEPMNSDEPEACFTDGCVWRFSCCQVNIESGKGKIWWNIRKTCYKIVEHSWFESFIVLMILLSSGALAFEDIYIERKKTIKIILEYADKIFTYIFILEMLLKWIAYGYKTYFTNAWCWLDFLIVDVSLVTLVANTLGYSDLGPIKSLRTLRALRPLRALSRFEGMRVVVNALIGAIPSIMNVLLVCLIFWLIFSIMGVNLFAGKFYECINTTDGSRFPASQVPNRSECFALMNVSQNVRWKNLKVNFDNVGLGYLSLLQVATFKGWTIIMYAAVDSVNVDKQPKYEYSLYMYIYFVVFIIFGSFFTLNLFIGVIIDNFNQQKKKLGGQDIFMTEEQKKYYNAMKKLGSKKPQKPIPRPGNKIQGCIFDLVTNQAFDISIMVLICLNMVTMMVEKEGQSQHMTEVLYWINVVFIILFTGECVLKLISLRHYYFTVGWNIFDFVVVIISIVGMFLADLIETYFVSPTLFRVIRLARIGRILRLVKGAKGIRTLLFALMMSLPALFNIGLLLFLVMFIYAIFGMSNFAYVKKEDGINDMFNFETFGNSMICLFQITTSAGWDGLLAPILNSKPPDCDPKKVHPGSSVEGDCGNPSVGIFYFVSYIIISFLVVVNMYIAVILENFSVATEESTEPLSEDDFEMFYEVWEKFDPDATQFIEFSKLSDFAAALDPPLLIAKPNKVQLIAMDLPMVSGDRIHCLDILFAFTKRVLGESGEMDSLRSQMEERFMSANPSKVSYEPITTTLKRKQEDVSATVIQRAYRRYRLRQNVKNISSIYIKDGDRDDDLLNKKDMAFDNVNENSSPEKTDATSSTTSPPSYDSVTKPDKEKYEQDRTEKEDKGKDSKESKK

# compound, IC50
data = [
    ("CC[N+]1(CC(=O)Nc2c(C)cccc2C(=O)OC)CCCC(C(=O)NC)C1.[I-] (centres unmarked)", "3 to 10 µM"),
    ("COC(=O)c1cccc(C)c1NC(=O)C[N+]1(Cc2ccccc2)CCCC(C(N)=O)C1.[Br-] (centres unmarked)", "< 1 µM"),
    ("COC(=O)c1cccc(C)c1NC(=O)C[N+]1(CC(N)=O)CCCC(c2ccccc2)C1 (mixture of isomers)", "< 1 µM"),
    ("CC[N+]1(CC(=O)Nc2c(C)cccc2C(=O)OC)CCCC(C(=O)N2CCCCC2)C1.[I-] (centres unmarked)", "< 1 µM"),
    ("COC(=O)c1cccc(C)c1NC(=O)C[N+]1(Cc2ccccc2)CCCC(C(=O)OC2CCCC2)C1.[Br-] (centres unmarked)", "3 to 10 µM"),
    ("COC(=O)c1cccc(C)c1NC(=O)C[N+]1(Cc2ccccc2)CCCC(C(=O)OC(C)C)C1 (centres unmarked)", "< 1 µM"),
    ("CCOC(=O)c1cccc(C)c1NC(=O)C[N+]1(Cc2ccccc2)CCCCC1.[Br-]", "< 1 µM"),
    ("CCOC(=O)c1cccc(C)c1NC(=O)C[N+]1(Cc2ccccc2)CCCC1.[Br-]", "< 1 µM"),
]

----------
Assay: PAMPA membrane permeability assay
Format: physicochemical
Conditions: pH 7.4 buffer, GIT lipid, 4 hours incubation
Method: The PAMPA assay (pION, Inc., Woburn Mass.) was used to determine the ability of compounds of the invention to cross an artificial lipid membrane by passive diffusion. […] The blank and reference spectrum were read using a spectrophotometer. […] Aliquots (150 μL) from the acceptor plate were added to a UV plate and read as acceptor spectrum. Aliquots (150 μL) of the donor solutions were added to a UV analysis plate and read as donor spectrum. […]

# compound, PAMPA (10^−6 cm/s)
rows = [
    ("CC[N+]1(CC(=O)Nc2c(C)cccc2C(=O)OC)CCCC(C(=O)N(C)C)C1.[I-] (stereo not drawn)", "+ (<0.1 10^−6 cm/s)"),
    ("CC[N+]1(CC(=O)Nc2c(C)cccc2C(=O)OC)CCCC(C(=O)N2CCCCCC2)C1 (mixture of isomers)", "+ (<0.1 10^−6 cm/s)"),
    ("COC(=O)c1cccc(C)c1NC(=O)C[N+]1(Cc2ccccc2)CCCC1", "+++ (2.0-10.010^−6 cm/s)"),
    ("CC[N+]1(CC(=O)Nc2c(C)cccc2C(=O)OC)CCCC(C(=O)OCC(C)C)C1.[I-] (stereo not drawn)", "+ (<0.1 10^−6 cm/s)"),
    ("CCCNC(=O)C1CCC[N+](CC(=O)Nc2c(C)cccc2C(=O)OC)(Cc2ccccc2)C1 (mixture of isomers)", "+++ (2.0-10.010^−6 cm/s)"),
    ("CC[N+]1(CC(=O)Nc2c(C)cccc2C(=O)OC)CCCC(C(=O)NCC(C)C)C1.[I-] (stereo not drawn)", "+ (<0.1 10^−6 cm/s)"),
]
